# Target Or Test System: human TRPM4 (Homo sapiens, UniProt Q8TD43)
# Sequence (Q8TD43 whole entry): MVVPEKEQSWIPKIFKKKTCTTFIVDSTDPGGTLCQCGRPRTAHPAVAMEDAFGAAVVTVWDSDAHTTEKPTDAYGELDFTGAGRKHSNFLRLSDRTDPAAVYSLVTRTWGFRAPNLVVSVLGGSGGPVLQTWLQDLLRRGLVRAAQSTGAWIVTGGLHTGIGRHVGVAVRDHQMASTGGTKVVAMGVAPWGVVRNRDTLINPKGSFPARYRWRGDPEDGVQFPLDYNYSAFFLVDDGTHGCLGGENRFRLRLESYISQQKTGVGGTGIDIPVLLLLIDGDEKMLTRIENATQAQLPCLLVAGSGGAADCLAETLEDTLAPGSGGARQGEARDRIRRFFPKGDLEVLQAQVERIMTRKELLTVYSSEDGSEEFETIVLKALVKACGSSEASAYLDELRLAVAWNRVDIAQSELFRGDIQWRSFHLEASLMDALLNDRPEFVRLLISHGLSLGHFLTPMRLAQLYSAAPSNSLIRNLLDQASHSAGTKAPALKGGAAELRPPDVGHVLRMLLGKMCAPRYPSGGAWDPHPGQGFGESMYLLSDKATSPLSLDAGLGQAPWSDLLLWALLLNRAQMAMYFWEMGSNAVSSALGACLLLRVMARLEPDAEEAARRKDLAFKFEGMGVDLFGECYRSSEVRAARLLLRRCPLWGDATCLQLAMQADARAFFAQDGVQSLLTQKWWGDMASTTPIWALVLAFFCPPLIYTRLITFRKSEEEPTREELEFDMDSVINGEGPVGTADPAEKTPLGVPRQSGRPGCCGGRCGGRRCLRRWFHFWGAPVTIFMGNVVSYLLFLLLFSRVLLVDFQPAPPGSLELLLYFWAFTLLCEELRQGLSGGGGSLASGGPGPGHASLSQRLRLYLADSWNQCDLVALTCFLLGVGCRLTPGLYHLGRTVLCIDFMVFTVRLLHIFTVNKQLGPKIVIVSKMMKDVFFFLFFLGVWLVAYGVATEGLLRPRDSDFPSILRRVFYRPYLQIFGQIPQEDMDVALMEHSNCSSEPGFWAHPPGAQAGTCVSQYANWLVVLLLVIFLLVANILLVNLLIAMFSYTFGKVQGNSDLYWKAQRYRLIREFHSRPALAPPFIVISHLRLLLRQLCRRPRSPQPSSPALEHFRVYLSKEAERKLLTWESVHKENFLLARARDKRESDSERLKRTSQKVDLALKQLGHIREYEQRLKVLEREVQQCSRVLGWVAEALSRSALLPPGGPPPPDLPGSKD
# Procedure Details: QPatch assay (automated patch clamp), TRPM4
# Condition Details: human TRPM4-expressing HEK293 cells, read-out: TRP M4 IC50

Compound Structure String	Target Or Test System	IC50 [nM]
Cc1noc(-c2csc(S(=O)(=O)Nc3ccccc3C(F)(F)F)c2)c1C	human TRPM4 (Homo sapiens, UniProt Q8TD43)	630
